// provenance: patent US12673944B2

System: GM1 production in Jurkat cells
Assay: cells
Format: cell-based
Details: Homo sapiens, Jurkat, 72 h
Reported Endpoint: log10 of IC50 (log10 of the value in nM)
Recorded IC50 (log10, nM)

COc1ccc(-c2ccc3c(c2)OCC(C)(C)C3NC(=O)O[C@@H]2CN3CCC2CC3)c(OC)n1 (stereo partly shown) [Example 129]    0.66

## Input Requested field: log10 of IC50. Item: COc1cccc(-c2ccc3c(c2)OCC(C)(C)C3NC(=O)O[C@@H]2CN3CCC2CC3)c1 (stereo partly shown) [Example 166]
## Output -1.15

## Input # get_value(readout='log10 of IC50', item= O=C(NC1CCOc2cc(-c3ccc4c(c3)CCCO4)ccc21)O[C@@H]1CN2CCC1CC2 (stereo partly shown) [Example 70] )
## Output 0.76

## Input Please look up its log10 of IC50: COc1ccccc1-c1ccc2c(c1)OCC(C)(C)C2NC(=O)O[C@@H]1CN2CCC1CC2 (stereo partly shown) [Example 162]
## Output -1.70

## Input Fill in the blank: the reported log10 of IC50 of COc1cc(-c2ccc3c(c2)OCCC3NC(=O)O[C@@H]2CN3CCC2CC3)ccc1Cl (stereo partly shown) [Example 66] is ____.
## Output 1.05

## Input Look up log10 of IC50 for this compound: COc1cccc(-c2ccc3c(c2)OCC(C)(C)C3NC(=O)O[C@@H]2CN3CCC2CC3)c1OC (stereo partly shown) [Example 127]
## Output 1.15

## Input // log10 of IC50 lookup, key: CC(C)(C)c1cccc(-c2ccc3c(c2)OCCC3(C)NC(=O)O[C@@H]2CN3CCC2CC3)c1 (stereo partly shown) [Example 310]
## Output -0.70

## Input Field request: log10 of IC50 | item: COc1ccc(-c2ccc3c(c2)OCC(C)(C)C3NC(=O)O[C@@H]2CN3CCC2CC3)cc1F (stereo partly shown) [Example 118]
## Output 0.56

## Input Need log10 of IC50, item O=C(NC1CCOc2ccc(-c3ccc(OC(F)(F)F)cc3)cc21)O[C@@H]1CN2CCC1CC2 (stereo partly shown) [Example 94]
## Output 2.61

----------
Test system: GM1 production in Jurkat cells
Assay: cells
Format: cell-based
Conditions: Homo sapiens, Jurkat, 72 h
Reported Endpoint: IC50 (nM)
Write it as a number; the unit nM goes unstated.

CC1(C)COc2cc(/C=C/c3cccc(F)c3)ccc2C1NC(=O)O[C@@H]1CN2CCC1CC2 (stereo partly shown)    1.4
O=C(NC1CCOc2cc(-c3cncc4ccccc34)ccc21)O[C@@H]1CN2CCC1CC2 (stereo partly shown)    2.66
COc1ccc(-c2ccc3c(c2)OCCC3NC(=O)O[C@@H]2CN3CCC2CC3)cc1C(F)(F)F (stereo partly shown)    19.6

Please look at the following compound next.
## Input Any idea what IC50 was measured for O=C(NC1CCOc2cc(-c3ccccc3OC(F)(F)F)ccc21)O[C@@H]1CN2CCC1CC2 (stereo partly shown) ?
## Output 3.28

----------
System: GM1 production in Jurkat cells
Experiment: cells
Format: cell-based
Conditions: Homo sapiens, Jurkat, 72 h
log10(IC50) values by entry
Values below are the log10 of the recorded IC50, with nM as the unit.

Example results:
CC(C)c1ccc(-c2ccc3c(c2)OCC(C)(C)C3NC(=O)O[C@@H]2CN3CCC2CC3)cc1 (some centres unmarked)    0.14
COc1cccc(-c2cc3c(cc2OC)C(NC(=O)O[C@@H]2CN4CCC2CC4)C(C)(C)CO3)c1 (some centres unmarked)    0.49
CCOc1ccc2cc(-c3ccc4c(c3)OCC(C)(C)C4NC(=O)O[C@@H]3CN4CCC3CC4)ccc2c1 (some centres unmarked)    -0.15
O=C(NC1CCOc2cc(-c3cccc(-c4ccccc4)c3)ccc21)O[C@@H]1CN2CCC1CC2 (some centres unmarked)    0.35
COc1ccccc1-c1ccc2c(c1)OCCC2NC(=O)O[C@@H]1CN2CCC1CC2 (some centres unmarked)    0.74

## Input For the compound O=C(NC1CCSc2cc(-c3cccc(C(F)(F)F)c3)ccc21)O[C@@H]1CN2CCC1CC2 (some centres unmarked) , what log10(IC50) is on record?
## Output 0.83

## Input Which log10(IC50) is reported for this compound? CC(C)c1cccc(-c2ccc3c(c2)OCC(C)(C)C3NC(=O)O[C@@H]2CN3CCC2CC3)c1 (some centres unmarked)
## Output -0.51

## Input What does the record list as log10(IC50) for COc1ccc(-c2cc3c(cc2F)C(NC(=O)O[C@@H]2CN4CCC2CC4)C(C)(C)CO3)cc1 (some centres unmarked) ?
## Output 0.54
